Reported EC50 values are given for each entry in this list.
# TARGET: T1, human CD4 on 293T cells stably expressing CD4 (CD4-293T) (human, UniProt P01730 26-458)
# T1 construct: whole, on cells; also called 293T-CD4 cells; hCD4 (FACS)
# TEST_SUMMARY: FACS, chimeric antibody on CD4-293T cells
Field format: number, assumed µg/mL, no unit text.

BINDER: Chimeric 11E12 anti-CD4 antibody (antibody, human IgG1, kappa, V domains shown) VH: EVQLEESGPSLVKPSQTLSLTCSVTGDSITSSYWNWIRKFPGHKLEFLGYISFADTTNYNPSLKSRISITRDTSKNQFDLQLKSVTTEDTATYYCARDDFGYYAMDYWGQGISVTVSS VL: DIYVTQTTSSLSASLGDRVTIICRASQDINNYLNWYQLKPDGTLKLLIYYTSRLHSGVPSRFGGSGSGTEYSLTISNLEQEDVATYFCQQGNTLPTFGAGTKLELKR
ENDPOINT_LABEL: EC50
READOUT_NUMBER: 0.316

Proceed to the following item.
INPUT: Consider the binder shown here: Chimeric 33E12 anti-CD4 antibody (antibody, human IgG1, kappa, V domains shown) VH: DVQLQESGPGLVKPSQSLSLTCTVTGYSITSDYAWNWIRQFPGNKLEWMGYISYSGITSYNPSLKSRFSITRDTSKNQFFLQLNSVTTEDTATYYCARLDSSGYGAMDYWGQGTSVTVSS VL: DIVLTQSPASLPVSLGQRATISCRASQSVSTSSYSYMHWYQQKPGQPPKLLIRYASNLESGVPARFSGSGSGTDFTLNIHPVEEEDTATYYCQHSWDFPLTFGAGTKLELKR What is its recorded EC50?
OUTPUT: 0.351
